Recorded values, source ChEMBL document CHEMBL3301472.

Exercise: for every item that follows, state its recorded % Cell Death.
Assay: MMV: MTT Cytotoxicity Assay Day 7 pi of Assay #11 (NO washout), U87-CD4-CXCR4 cells, % cell death @ 5mM compound
Assay type: toxicity, cell-based
Details: human, u87-cd4-cxcr4, 5000 µM
Give bare numbers.

Worked examples, 5 compounds total:
Cc1ccc(Nc2nc(-c3ccccn3)cs2)cc1; 12
COc1ccc(C2c3ccc4ccccc4c3Oc3ncn(CCCN(C)C)c(=N)c32)cc1 (stereo unspecified); -61
COc1ccc(NC(=O)C2c3ccccc3C(=O)N(CC(C)C)C2c2cccs2)cc1Cl (stereo unspecified); -10
Cc1ccc2c(C)nc(Nc3nc(C)cc(-c4ccccc4)n3)nc2c1; 104
O=C(NC1CCCC1)c1ccc(N2CCC(NCc3cccc(C(F)(F)F)c3)CC2)cc1; 6

Lab note: next compound to report on.
Exam item: What % Cell Death value was documented for this compound, Nc1nc(Nc2cccc(F)c2)nc2ccccc12 ?
Marked response: 36

###

Kindly supply the reported % Cell Death values for the records listed here.
Experiment: MMV: MTT Cytotoxicity Assay Day 7 pi of Assay #11 (NO washout), U87-CD4-CXCR4 cells, % cell death @ 5mM compound
Type: toxicity, cell-based
Details: human, u87-cd4-cxcr4, 5000 µM

Below are worked cases with known answers.
CCOc1ccccc1CNC(=O)C1c2ccccc2C(=O)N(CC(C)C)C1c1cccs1 (stereo not drawn); 4
CCOC(=O)C1(Cc2ccccc2)CCN(Cc2cccc(OC)c2O)CC1; -36

# batch: return % Cell Death for each of the 2 compounds below
1. O=C(NCC1Cc2cccc(-c3ccncc3)c2O1)c1csc2c1CCCC2 (stereo not drawn)
2. CC(C)(C)c1ccc(C2CC3=Nc4ccccc4N(C(=O)c4ccccc4Cl)C(c4ccc(F)cc4)C3=C(O)C2)cc1 (stereo not drawn)

Marked response:
1. 60
2. 5

Provide the reported % Cell Death of each entry below, same order.
1. Cc1sc(NC(=O)c2ccccc2)c(C(c2cccs2)N2CCN(c3ccccc3)CC2)c1C (stereo not drawn)
2. CCOc1ccc2c(c1)CN(Cc1ccc(Cl)cc1)CO2
3. CCN(Cc1ccccc1)C1CCN(Cc2cc(Br)ccc2O)CC1.O=C(O)C(=O)O
4. O=C(NC1CCN(Cc2ccccc2)CC1)c1cc(-c2ccncc2)nc2ccc(Cl)cc12
5. CCC(C)NCC(O)(c1ccc(Cl)cc1)c1ccc(Cl)cc1 (stereo not drawn)
6. CC1CCN(Cc2ccc(NC(=O)c3cc4ccc5cccnc5c4[nH]3)cc2)CC1
7. CCCCOc1ccc(C(=O)Nc2cc(C)on2)cc1

Marked response:
1: -15; 2: 20; 3: -25; 4: 58; 5: 3; 6: -7; 7: 33

###

Test: MMV: MTT Cytotoxicity Assay Day 7 pi of Assay #7 (compound washed out Day 1 pi), U87-CD4-CXCR4 cells, % cell death @ 5mM compound
Assay type: toxicity, cell-based
Details: human, u87-cd4-cxcr4, 5000 µM
ASSAY_METRIC: % Cell Death
Numbers only.

CN(C)c1ccc(C=Cc2nc(=O)c3ccccc3o2)cc1; 0
O=C(NNc1cc(N2CCCC2)nc(N2CCCC2)n1)c1ccccc1; 53
CCCCCC(=O)N1c2ccccc2N=C2CC(c3ccc(OC)c(OC)c3)CC(O)=C2C1c1ccc(C(F)(F)F)cc1 (configuration not stated); -21
CCOC(=O)C1=CN(C)C=C(C(=O)OCC)C1c1cc(Br)c(OCC)c(OC)c1; 99
COc1ccc(CN2CCN(Cc3ccccc3)CC2)c(O)c1; 53

Respectfully, I request % Cell Death for each entry included below.
1. O=[N+]([O-])c1ccc(C=NNc2nc3ccccc3[nH]2)cc1
2. COc1ccccc1CNC(=O)C1c2ccccc2C(=O)N(CC(C)C)C1c1cccs1 (configuration not stated)
3. O=C(NC1CCCCC1)C(c1cccs1)N(CCc1ccccc1)C(=O)c1ccco1 (configuration not stated)
4. COc1ccc(CCN2C(=O)c3[nH]nc(-c4cc(Cl)c(C)cc4O)c3C2c2ccccc2F)cc1 (configuration not stated)
5. COc1ccc(CNC(=O)c2cc3c(=O)n4ccccc4nc3n(CCc3ccccc3)c2=N)cc1
6. COc1ccc(-c2cc(=O)oc3c4c(ccc23)OCN(Cc2ccc(F)cc2)C4)cc1
7. CCN(CC)CCNc1ncnc2c1[nH]c1ccc(Cl)cc12

Marked response:
1. -15
2. -8
3. 61
4. -18
5. -14
6. -9
7. -31

Please state, for each entry, its recorded % Cell Death.
1. O=C(O)C(=O)O.Oc1ccccc1CN1CCN(C(c2ccccc2)c2ccccc2)CC1
2. O=C(Nc1ccc(N2CCCCC2)c(Cl)c1)c1ccc(Br)o1
3. COc1cc(SC)ccc1C(=O)N1CCCC(C)C1 (configuration not stated)
4. OC1=C2C(=Nc3ccccc3SC2c2ccccc2)c2ccccc21 (configuration not stated)
5. CN1CCN(c2c3c(c(C#N)c4nc5ccccc5n24)CCC3)CC1
6. O=C(CCc1ccco1)NC1CCN(CC2(c3ccc(Cl)cc3)CCC2)CC1
7. CCOc1ccc(CCNC(=O)c2cccs2)cc1OCC
8. CC1(c2ccccc2)Nc2ccccc2-c2nc3ccccc3n21 (configuration not stated)

Marked response:
1. 28
2. 53
3. -26
4. 24
5. -15
6. 24
7. -3
8. -19

// each listed compound needs a value for % Cell Death
1. Cl.N=c1n(CCN2CCCCC2)c2ccccc2n1CC(O)c1cccc(Br)c1 (configuration not stated)
2. Cc1cc(C)c2c(c1)OCN(Cc1ccccc1Cl)C2

Marked response:
-20
-14
